# Read-out: TIMP metallopeptidase inhibitor 2 (TIMP2), TIMP2 (gene 7077)
# assay: BSK_KF3CT_TIMP2: BioMAP Diversity Plus: KF3CT Assay for TIMP metallopeptidase inhibitor 2 (TIMP2) Biomarker Activity (AID 2283071)
# test.conditions: primary human keratinocytes with fibroblasts; actives raise or lower the signal
Calls of active or inactive are those of the source. The calls were made as follows: active = hit-call score of the fitted dose curve at least 0.9, where 1 is the maximum; inactive = score below 0.9.
Outcomes you can answer with include only these: 1 (yes) for active, 0 (no) for inactive

compound	category
Oc1cc(Cl)ccc1Cl	0 (no)
Nc1ccc(-c2ccc(N)c(N)c2)cc1N	1 (yes)
O=C(CCl)c1ccccc1	1 (yes)
CC(C)CCCCCCCOP(=O)(Oc1ccccc1)Oc1ccccc1	1 (yes)
C=CCN(CC=C)C(=O)C(Cl)Cl	0 (no)

What is the recorded call for this compound in the test? COCC(=O)N(c1c(C)cccc1C)N1CCOC1=O
0 (no)

What is the recorded call for this compound in the test? COC(C)(C)CCC[C@H](C)C/C=C/C(C)=C/C(=O)OC(C)C
1 (yes)

The measured values listed here are drawn from PubChem BioAssay (EPA / NIEHS).
